In this section we review reported activity change, negative = inhibition values for a set of molecules.
# SYSTEM NAME: D(1A) dopamine receptor (Homo sapiens)
# PROCEDURE DETAILS: Antagonist of Human D 1 Dopamine Receptor: qHTS; note: % is set by controls: 0 for no effect and ±100 for the full control effect
# CONDITION LABEL: HEK293 TREx D1 cells, calcium flux, dopamine EC80; at 10 µM; stronger effect = lower value
# Experimental: Dopamine receptors (DARs) are involved in the etiology and/or therapy of a number of neuropsychiatric and endocrine disorders. […] Freshly passaged cells are plated in 1536 well black, clear bottom plates at a density of 4000 cells/well in 3 ul of complete media containing 1x tetracycline inducer. […] Agonist read: A 10 cycle (1 second/cycle) baseline measurement is taken and then the FDSS online 1536 pintool delivers 23 nl of compound library (as well as dopamine controls) to the plate. […]
Out of some 360,000 compounds screened, about 11,000 (3.1%) were called active. The sample as a whole holds a higher share of actives than the screen did.
Enter your answer as a number in %; do not include the unit.

// solved cases for activity change, negative = inhibition follow
Ask | Would you mind telling me what activity change, negative = inhibition value was observed for `CCOC(=O)c1c(C)[nH]c(CCC(=O)NCCCN2CCN(c3cccc(Cl)c3)CC2)c1C` ?
Reply | -31.4

Ask | Would you mind telling me what activity change, negative = inhibition value was observed for `O=C(CCn1c(=O)[nH]c2ccccc2c1=O)NCCCN1CCN(c2cccc(Cl)c2)CC1` ?
Reply | -49

Ask | Would you mind telling me what activity change, negative = inhibition value was observed for `CCOC(=O)N1CCN(CC(=O)n2c(C)c(C)c3ccccc32)CC1` ?
Reply | 6.89

Ask | Would you mind telling me what activity change, negative = inhibition value was observed for `Cc1nc2cc(NC(=O)Nc3cccc(F)c3)ccc2n1C` ?
Reply | -4.15

Ask | Would you mind telling me what activity change, negative = inhibition value was observed for `CCn1c(=O)cc(OCC(=O)Nc2cc(Cl)c(OC)cc2OC)c2ccccc21` ?
Reply | 1.43

---
Ask | Would you mind telling me what activity change, negative = inhibition value was observed for `Cc1ccccc1OCc1ccc(-c2nc(C#N)c(N3CCCCC3)o2)o1` ?
Reply | 2.09

Ask | Would you mind telling me what activity change, negative = inhibition value was observed for Cc1cc(OC(C)C(=O)Nc2sc3c(c2C(N)=O)CCCC3)ccc1Cl (stereo unspecified) ?
Reply | 3.29

Ask | Would you mind telling me what activity change, negative = inhibition value was observed for `Cn1c(=O)c2sccc2n2c(CCC(=O)NCc3ccccc3Cl)nnc12` ?
Reply | -4.17

Ask | Would you mind telling me what activity change, negative = inhibition value was observed for `COc1ccc(OCc2ccc(-c3nc(C#N)c(N4CCN(c5ccccc5)CC4)o3)o2)cc1` ?
Reply | -27.6

Ask | Would you mind telling me what activity change, negative = inhibition value was observed for COc1ccc(Br)cc1C1CC(=O)Nc2c1c(C)nn2-c1nc(C)cc(C)n1 (stereo unspecified) ?
Reply | 5.29

###

# SYSTEM NAME: D(1A) dopamine receptor (Homo sapiens)
# PROCEDURE DETAILS: Antagonist of Human D 1 Dopamine Receptor: qHTS; note: % is set by controls: 0 for no effect and ±100 for the full control effect
# CONDITION LABEL: HEK293 TREx D1 cells, calcium flux, dopamine EC80; at 10 µM; stronger effect = lower value
# Protocol: Dopamine receptors (DARs) are involved in the etiology and/or therapy of a number of neuropsychiatric and endocrine disorders. […] Freshly passaged cells are plated in 1536 well black, clear bottom plates at a density of 4000 cells/well in 3 ul of complete media containing 1x tetracycline inducer. […] Agonist read: A 10 cycle (1 second/cycle) baseline measurement is taken and then the FDSS online 1536 pintool delivers 23 nl of compound library (as well as dopamine controls) to the plate. […]
Hit rate of the full screen: of about 360,000 compounds, about 11,000 (3.1%) were called active. The sample holds actives, similar compounds and a random draw of the others, so the mix is not that of the screen.
In this section we review reported activity change, negative = inhibition values for a set of molecules.
Enter your answer as a number in %; do not include the unit.

Ask | Would you mind telling me what activity change, negative = inhibition value was observed for `CN1CCN(c2ccc(S(=O)(=O)Nc3ccccc3)cc2[N+](=O)[O-])CC1` ?
Reply | -46.5

Ask | Would you mind telling me what activity change, negative = inhibition value was observed for `CC(=O)N1CCN(c2ccc(NCc3ccc(C(C)C)cc3)cc2)CC1` ?
Reply | -50.6

Ask | Would you mind telling me what activity change, negative = inhibition value was observed for `CN1CCN(S(=O)(=O)c2ccc(N3CCN(c4ccccc4O)CC3)c([N+](=O)[O-])c2)CC1` ?
Reply | 7.38

---
Ask | Would you mind telling me what activity change, negative = inhibition value was observed for `O=C(Nc1cccc(-c2cccc(Cl)c2)c1)C1CCN(C2CCC2)CC1` ?
Reply | -10

Ask | Would you mind telling me what activity change, negative = inhibition value was observed for `CCOc1ccc(-c2nonc2NC(=O)c2oc3ccc(CC)cc3c2C)cc1` ?
Reply | -6.14

###

# SYSTEM NAME: D(1A) dopamine receptor (Homo sapiens)
# PROCEDURE DETAILS: Antagonist of Human D 1 Dopamine Receptor: qHTS; note: % is set by controls: 0 for no effect and ±100 for the full control effect
# CONDITION LABEL: HEK293 TREx D1 cells, calcium flux, dopamine EC80; at 10 µM; stronger effect = lower value
Among all 360,000 compounds or so, about 11,000 (3.1%) were called active. What follows is part of a selection rich in actives, with near analogues and random picks from the rest.
PROPERTY LABEL: activity change, negative = inhibition (%)
Enter your answer as a number in %; do not include the unit.

Ask | API: value(readout= activity change, negative = inhibition, system= D(1A) dopamine receptor (Homo sapiens), query= CN1CCN(CC(O)COCc2ccc3c(c2)OCO3)CC1 (centres undefined) )
Reply | -5.88

Ask | API: value(readout= activity change, negative = inhibition, system= D(1A) dopamine receptor (Homo sapiens), query= `COc1ccc(C(=O)c2c(C)oc3cc([N+](=O)[O-])c(O)c([N+](=O)[O-])c23)cc1` )
Reply | 12.5

Ask | API: value(readout= activity change, negative = inhibition, system= D(1A) dopamine receptor (Homo sapiens), query= `COC(=O)c1cc(NC(=O)c2cnc(SC)nc2-c2ccccc2)cc(C(=O)OC)c1` )
Reply | -16.6

---
Ask | API: value(readout= activity change, negative = inhibition, system= D(1A) dopamine receptor (Homo sapiens), query= `CCCCNC(=O)c1onc(CSc2cccc(OC)c2)c1C(=O)O` )
Reply | -73.2

Ask | API: value(readout= activity change, negative = inhibition, system= D(1A) dopamine receptor (Homo sapiens), query= `O=C(Nc1ccc(OC(F)(F)F)cc1)c1cc2c(=O)n3ccccc3nc2s1` )
Reply | -3.02

Ask | API: value(readout= activity change, negative = inhibition, system= D(1A) dopamine receptor (Homo sapiens), query= `Cc1cc(Cl)ccc1OCCCC(=O)NCc1ccccn1` )
Reply | -2.23

Ask | API: value(readout= activity change, negative = inhibition, system= D(1A) dopamine receptor (Homo sapiens), query= `CCOc1cccc(SCc2noc(C(=O)NC(C)C)c2C(=O)O)c1` )
Reply | 3.21

###

# SYSTEM NAME: D(1A) dopamine receptor (Homo sapiens)
# PROCEDURE DETAILS: Antagonist of Human D 1 Dopamine Receptor: qHTS; note: % is set by controls: 0 for no effect and ±100 for the full control effect
# CONDITION LABEL: HEK293 TREx D1 cells, calcium flux, dopamine EC80; at 10 µM; stronger effect = lower value
The campaign covered roughly 360,000 compounds. About 11,000 (3.1%) were called active. This excerpt belongs to a sample that is enriched for actives.
PROPERTY LABEL: activity change, negative = inhibition (%)
Enter your answer as a number in %; do not include the unit.

// solved cases for activity change, negative = inhibition follow
Ask | Would you mind telling me what activity change, negative = inhibition value was observed for `COc1ccc(-c2cn3c(C)c(C(=O)Nc4cc(C)cc(C)c4)sc3n2)cc1` ?
Reply | 9.7

Ask | Would you mind telling me what activity change, negative = inhibition value was observed for CCC(=O)N1c2ccccc2CC1C(=O)N1CCN(c2cccc(OC)c2)CC1 (stereo not given) ?
Reply | -5.92

Ask | Would you mind telling me what activity change, negative = inhibition value was observed for `COc1ccc(NC(=O)CCCN2C(=O)CCn3nc(-c4cn(C)c5ccccc45)cc32)cc1OC` ?
Reply | 16

Ask | Would you mind telling me what activity change, negative = inhibition value was observed for O=C1OC(C(=O)Nc2cccc(Br)c2)Cc2ccccc21 (stereo not given) ?
Reply | 3.01

Ask | Would you mind telling me what activity change, negative = inhibition value was observed for `Cc1c(C(=O)N2CCCC2)oc2c1-c1nn(CC(=O)NCc3ccc(OC(C)C)cc3)cc1CC2` ?
Reply | -7.55

Ask | Would you mind telling me what activity change, negative = inhibition value was observed for `Cc1ccc(NS(=O)(=O)c2ccc(-c3coc(C)n3)cc2)c(C)c1` ?
Reply | -39.4

Ask | Would you mind telling me what activity change, negative = inhibition value was observed for `Cc1nc2nc(NCc3cccc(Br)c3)[nH]n2c(=O)c1Cc1ccccc1` ?
Reply | -2.6

Ask | Would you mind telling me what activity change, negative = inhibition value was observed for CCOc1ccc(C2C(C(=O)Nc3ccc(Cl)cc3)=C(C)Nc3nc(C(F)(F)F)nn32)cc1 (stereo not given) ?
Reply | 10.7

Ask | Would you mind telling me what activity change, negative = inhibition value was observed for COc1cccc(C(c2c(O)cc(C)n(Cc3ccco3)c2=O)N2CCN(c3ccccc3)CC2)c1 (stereo not given) ?
Reply | 4.67

Shifting focus to the compound that follows.
Ask | Would you mind telling me what activity change, negative = inhibition value was observed for `Cc1cc2c(cc1S(=O)(=O)CCC(=O)Nc1ccc(OC(F)(F)F)cc1)OCC(=O)N2` ?
Reply | -0.986
